Measured IC50 (Pim-1 (Homo sapiens (Human), UniProt P11309))

# compoundStructureString, IC50
data = [
    ("C[C@@H]1C[C@H](N)C[C@H](c2ccncc2NC(=O)c2ccc(F)c3cc(N4CCCCCC4)cnc23)C1", "≤ 10 nM"),
    ("C[C@@H]1C[C@H](N)C[C@H](c2ccncc2NC(=O)c2ccc(F)c3cc(N4CCCN(C)S4(=O)=O)cnc23)C1", "≤ 10 nM"),
    ("C[C@@H]1C[C@H](N)C[C@H](c2ccncc2NC(=O)c2ccc(F)c3cc(N(C)C)cnc23)C1", "≤ 10 nM"),
    ("C[C@@H]1C[C@H](N)C[C@H](c2ccncc2NC(=O)c2ccc(F)c3cc(N(C)[C@@H]4CCOC4)cnc23)C1", "≤ 10 nM"),
    ("C[C@@H]1C[C@H](N)C[C@H](c2ccncc2NC(=O)c2ccc(F)c3cc(N4CCOC[C@H]4C)cnc23)C1", "≤ 10 nM"),
    ("C[C@@H]1C[C@H](N)C[C@H](c2ccncc2NC(=O)c2ccc(F)c3cc(N4CCc5cnn(C)c5C4)cnc23)C1", "≤ 10 nM"),
    ("C[C@@H]1C[C@H](N)C[C@H](c2ccncc2NC(=O)c2ccc(F)c3cc(N4CC[C@@H](C#N)C4)cnc23)C1", "≤ 10 nM"),
    ("COc1ccncc1N(C)c1cnc2c(C(=O)Nc3cnccc3[C@@H]3C[C@H](C)C[C@H](N)C3)ccc(F)c2c1", "≤ 10 nM"),
    ("CO[C@@H]1CCN(c2cnc3c(C(=O)Nc4cnccc4[C@@H]4C[C@H](C)C[C@H](N)C4)ccc(F)c3c2)[C@@H](C)C1", "≤ 10 nM"),
    ("C[C@@H]1C[C@H](N)C[C@H](c2ccncc2NC(=O)c2ccc(F)c3cc(Nc4ccccc4F)cnc23)C1", "≤ 10 nM"),
    ("C[C@@H]1C[C@H](N)C[C@H](c2ccncc2NC(=O)c2ccc(F)c3cc(N(C)CC(F)(F)F)cnc23)C1", "≤ 10 nM"),
    ("C[C@@H]1C[C@H](N)C[C@H](c2ccncc2NC(=O)c2ccc(F)c3cc(N4CCN(C5CC5)C(=O)C4)cnc23)C1", "≤ 10 nM"),
    ("C[C@@H]1C[C@H](N)C[C@H](c2ccncc2NC(=O)c2ccc(F)c3cc(N4C[C@H]5C[C@@H]4CN5S(C)(=O)=O)cnc23)C1", "≤ 10 nM"),
    ("CCOC(=O)N1CCN(c2cnc3c(C(=O)Nc4cnccc4[C@@H]4C[C@H](C)C[C@H](N)C4)ccc(F)c3c2)CC1", "≤ 10 nM"),
]

----------
Reported IC50, Pim-2 (Homo sapiens (Human)).

# compound, IC50
records = [
    ("C[C@@H]1C[C@H](N)C[C@H](c2ccncc2NC(=O)c2ccc(F)c3cc(-c4ccccc4C#N)cnc23)C1", "100 to 1000 nM"),
    ("CC(C)[C@@H](C)Nc1cnc2c(C(=O)Nc3cnccc3[C@@H]3C[C@H](C)C[C@H](N)C3)ccc(F)c2c1", "100 to 1000 nM"),
    ("C[C@@H]1C[C@H](N)C[C@H](c2ccncc2NC(=O)c2ccc(F)c3cc(N4CC(=O)N5CCCC[C@@H]5C4)cnc23)C1", "≤ 100 nM"),
    ("C[C@@H]1C[C@H](N)C[C@H](c2ccncc2NC(=O)c2ccc(F)c3cc(N4CC5COCC5C4)cnc23)C1 (some centres unmarked)", "≤ 100 nM"),
    ("C[C@@H]1C[C@H](N)C[C@H](c2ccncc2NC(=O)c2ccc(F)c3cc(N4CC(=O)N(C)C[C@H]4C)cnc23)C1", "≤ 100 nM"),
    ("C[C@@H]1C[C@H](N)C[C@H](c2ccncc2NC(=O)c2ccc(F)c3cc(N4CCN(S(C)(=O)=O)C[C@H]4C)cnc23)C1", "≤ 100 nM"),
    ("CO[C@H]1CCCN(c2cnc3c(C(=O)Nc4cnccc4[C@@H]4C[C@H](C)C[C@H](N)C4)ccc(F)c3c2)C1", "100 to 1000 nM"),
    ("C[C@@H]1C[C@H](N)C[C@H](c2ccncc2NC(=O)c2ccc(F)c3cc(NCCF)cnc23)C1", "≤ 100 nM"),
]
